- target or system: CCL3L1_HUMAN (Homo sapiens, UniProt P16619)
- Sequence (P16619 24-93): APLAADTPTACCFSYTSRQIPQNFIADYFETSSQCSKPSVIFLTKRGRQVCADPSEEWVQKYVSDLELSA
- protocol details: Biolayer interferometry (BLI) binding
Would you kindly list Kd for each of these molecules?
The reply should contain only the number, in nM.

Reported Kd for P1181_AMBMA: tick CKBP, Amblyomma maculatum (protein, listed as Amblyomma maculatum) EEREDDNDYGGGCPFVVLGNGTHAKPAGCSHLCNGAPETLDNIECYNVTEEVAKRMTPDIPYTCWLGWCSKGECKRDNRTEVCYRGSERE was 3.3

Reported Kd for P974_AMBCA: tick CKBP, Amblyomma cajennense; ACA-01 stated identical (protein, Amblyomma cajennense, tick CKBP, Amblyomma cajennense; ACA-01 stated identical) ENTQQEEQDYDYGTDTCPFPVLANKTNKAKFVGCHQKCNGGDQKLTDGTACYVVERKVWDRMTPMLWYECPLGECKNGVCEDLRKKEDCRKGNGEEK was 13.1

Reported Kd for P1243_AMBAM: tick CKBP, Amblyomma americanum; AAM-02 stated identical (protein, listed as Amblyomma americanum) RNHTEDNSTEYYDYEEARCACPARHLNNTNGTVLKLLGCHYFCNGTLCTAPDGYPCYNLTAQQVRTLTTYPNTSCAVGVCMKGTCVKNGTMEQCFKTP was 5.05

Reported Kd for P985_AMBPA: tick CKBP, Amblyomma parvum (protein, listed as Amblyomma parvum) DEESEELGASTDVDYEELDANCTCPAPALTSTRNNKHYPLGCIYNCSSYNCTIPDGTPCYVLTLGEVKEHLQIGSTVPNCTCGLCRNGTCVSNGTVEECFAVEEIEET was 7.5
